Molecular target: C-C chemokine receptor type 4 (Homo sapiens); also: in other assays of this panel Not Active means under 50% inhibition at 10 µM
Sequence (P51679 whole entry): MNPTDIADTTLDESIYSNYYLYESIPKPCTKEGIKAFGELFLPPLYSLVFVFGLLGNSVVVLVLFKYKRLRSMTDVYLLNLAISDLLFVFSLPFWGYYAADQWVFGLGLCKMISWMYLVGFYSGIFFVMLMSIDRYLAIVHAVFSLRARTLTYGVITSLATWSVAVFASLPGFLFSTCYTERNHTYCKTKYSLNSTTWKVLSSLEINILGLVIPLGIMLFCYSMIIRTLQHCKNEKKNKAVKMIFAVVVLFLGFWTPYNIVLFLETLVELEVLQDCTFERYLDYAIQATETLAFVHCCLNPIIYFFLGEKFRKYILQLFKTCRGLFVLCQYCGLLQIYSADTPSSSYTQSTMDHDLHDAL
Assay type: cell membranes, Chem-1, Membrane
Conditions: chem-1
Measured attribute: IC50

Look over these answered cases.
Compound: OC[C@@H](O)[C@@H](O)[C@H](O)[C@H](O)CO
Value measured: Not Active
--
Compound: Nc1nc(F)nc2c1ncn2[C@@H]1O[C@H](CO)[C@@H](O)[C@@H]1O
Value measured: Not Active
--
Compound: COC(=O)C[C@](O)(CCC(C)(C)O)C(=O)O[C@@H]1C(OC)=C[C@]23CCCN2CCc2cc4c(cc2[C@H]13)OCO4
Value measured: Not Active
--
Compound: CC(=O)[C@]1(O)Cc2c(O)c3c(c(O)c2[C@@H](O[C@H]2C[C@H](N)[C@H](O)[C@H](C)O2)C1)C(=O)c1ccccc1C3=O
Value measured: Not Active
--
Compound: CC(=O)O[C@]1(C(C)=O)CC[C@H]2[C@@H]3C[C@H](C)C4=CC(=O)CC[C@]4(C)[C@H]3CC[C@@]21C [MEDROXYPROGESTERONE ACETATE]
Value measured: Not Active
--
Compound: C[C@@H]1[C@H](O)[C@@H](C)/C=C/C=C/C=C/C=C/C=C/C=C/C=C/[C@H](O[C@@H]2O[C@H](C)[C@@H](O)[C@H](N)[C@@H]2O)C[C@@H]2O[C@](O)(C[C@@H](O)C[C@@H](O)[C@H](O)CC[C@@H](O)C[C@@H](O)CC(=O)O[C@H]1C)C[C@H](O)[C@H]2C(=O)O
Value measured: Not Active
--
Compound: O=C1CN(/N=C/c2ccc([N+](=O)[O-])o2)C(=O)N1
Value measured: Not Active
--
Compound: CN(CCOc1ccc(C[C@H](Nc2ccccc2C(=O)c2ccccc2)C(=O)O)cc1)c1ccccn1
Value measured: Not Active
--
Compound: CCN(CC)N=O
Value measured: Not Active
--
Compound: Oc1ccc(/C=C/c2cc(O)cc(O)c2)cc1
Value measured: Not Active

// for each compound in input: emit IC50
1. O=C1c2ccccc2C(=O)C1c1ccccc1
2. Cc1[nH]c(=O)c(C#N)cc1-c1ccncc1
3. CCN(CC)CCNC(=O)c1cc(Cl)c(N)cc1OC [METOCLOPRAMIDE]
4. C=CCc1ccc2c(c1)OCO2
5. COc1ccc(Cl)cc1C(=O)NCCc1ccc(S(=O)(=O)NC(=O)NC2CCCCC2)cc1 [GLYBURIDE]
6. Oc1ncnc2[nH]ncc12

## Result
Not Active
Not Active
Not Active
Not Active
Not Active
Not Active
